molecular target: T1, CD28 on Jurkat/IL2 reporter cells (human, UniProt P10747 19-220); experiment: flow cytometry, Jurkat cells (CD28)
T1 construct: whole, on cells; Endogenous CD28 of Jurkat cells; also called Jurkats (CD28)
If the reported MFI at 33.3 nM equals or exceeds 400 MFI, assign 1. If not, assign -1.

binder	label
variant CD80 IgV-Fc M47I/A71G (Fc fusion, not shown: a dimerising Fc or GST) VIHVTKEVKEVATLSCGHNVSVEELAQTRIYWQKEKKMVLTMMSGDINIWPEYKNRTIFDITNNLSIVILGLRPSDEGTYECVVLKYEKDAFKREHLAEVTLSVKAD	1
variant CD80 IgV-Fc D46V/M47I/A71G (Fc fusion, not shown: a dimerising Fc or GST) VIHVTKEVKEVATLSCGHNVSVEELAQTRIYWQKEKKMVLTMMSGVINIWPEYKNRTIFDITNNLSIVILGLRPSDEGTYECVVLKYEKDAFKREHLAEVTLSVKAD	1
variant CD80 IgV-Fc V22A/E35D/M47L/A71G (Fc fusion, not shown: a dimerising Fc or GST) VIHVTKEVKEVATLSCGHNVSAEELAQTRIYWQKDKKMVLTMMSGDLNIWPEYKNRTIFDITNNLSIVILGLRPSDEGTYECVVLKYEKDAFKREHLAEVTLSVKAD	1
variant CD80 IgV-Fc E35D/D46E/L85M (Fc fusion, not shown: a dimerising Fc or GST) VIHVTKEVKEVATLSCGHNVSVEELAQTRIYWQKDKKMVLTMMSGEMNIWPEYKNRTIFDITNNLSIVILALRPSDEGTYECVVMKYEKDAFKREHLAEVTLSVKAD	-1
variant CD80 IgV-Fc E35D/M47V/L85M/R94Q (Fc fusion, not shown: a dimerising Fc or GST) VIHVTKEVKEVATLSCGHNVSVEELAQTRIYWQKDKKMVLTMMSGDVNIWPEYKNRTIFDITNNLSIVILALRPSDEGTYECVVMKYEKDAFKQEHLAEVTLSVKAD	-1
variant CD80 IgV-Fc E35D/D46E/A91G (Fc fusion, not shown: a dimerising Fc or GST) VIHVTKEVKEVATLSCGHNVSVEELAQTRIYWQKDKKMVLTMMSGEMNIWPEYKNRTIFDITNNLSIVILALRPSDEGTYECVVLKYEKDGFKREHLAEVTLSVKAD	1
variant CD80 IgV-Fc Q27L/E35D/M47V/I61V/L85M (Fc fusion, not shown: a dimerising Fc or GST) VIHVTKEVKEVATLSCGHNVSVEELALTRIYWQKDKKMVLTMMSGDVNIWPEYKNRTIFDVTNNLSIVILALRPSDEGTYECVVMKYEKDAFKREHLAEVTLSVKAD	-1
variant CD80 IgV-Fc Q27H/E35D/M47I (Fc fusion, not shown: a dimerising Fc or GST) VIHVTKEVKEVATLSCGHNVSVEELAHTRIYWQKDKKMVLTMMSGDINIWPEYKNRTIFDITNNLSIVILALRPSDEGTYECVVLKYEKDAFKREHLAEVTLSVKAD	1
variant CD80 IgV-Fc E35D/D46E/M47I (Fc fusion, not shown: a dimerising Fc or GST) VIHVTKEVKEVATLSCGHNVSVEELAQTRIYWQKDKKMVLTMMSGEINIWPEYKNRTIFDITNNLSIVILALRPSDEGTYECVVLKYEKDAFKREHLAEVTLSVKAD	1
CD80 WT IgV-Fc (Fc fusion, not shown: a dimerising Fc or GST, also called WT CD80 IgV-Fc; wild-type CD80 IgV-Fc) VIHVTKEVKEVATLSCGHNVSVEELAQTRIYWQKEKKMVLTMMSGDMNIWPEYKNRTIFDITNNLSIVILALRPSDEGTYECVVLKYEKDAFKREHLAEVTLSVKAD	-1
variant CD80 IgV-Fc E35D/M43I/D46E/A71G/L85M (Fc fusion, not shown: a dimerising Fc or GST) VIHVTKEVKEVATLSCGHNVSVEELAQTRIYWQKDKKMVLTMISGEMNIWPEYKNRTIFDITNNLSIVILGLRPSDEGTYECVVMKYEKDAFKREHLAEVTLSVKAD	-1
variant CD80 IgV-Fc E35D/D46E (Fc fusion, not shown: a dimerising Fc or GST) VIHVTKEVKEVATLSCGHNVSVEELAQTRIYWQKDKKMVLTMMSGEMNIWPEYKNRTIFDITNNLSIVILALRPSDEGTYECVVLKYEKDAFKREHLAEVTLSVKAD	1
variant CD80 IgV-Fc E35D/T41S/N48I (Fc fusion, not shown: a dimerising Fc or GST, also called E35D/T41S/N48T) VIHVTKEVKEVATLSCGHNVSVEELAQTRIYWQKDKKMVLSMMSGDMTIWPEYKNRTIFDITNNLSIVILALRPSDEGTYECVVLKYEKDAFKREHLAEVTLSVKAD	-1
variant CD80 IgV-Fc E35D/M47V/N48K/L85M (Fc fusion, not shown: a dimerising Fc or GST) VIHVTKEVKEVATLSCGHNVSVEELAQTRIYWQKDKKMVLTMMSGDVKIWPEYKNRTIFDITNNLSIVILALRPSDEGTYECVVMKYEKDAFKREHLAEVTLSVKAD	1

Cited source: patent US20210130436A1
